Value source: patent US11155523B2

Target: CCR5 (Homo sapiens)
Sequence (P51681 whole entry, species assumed): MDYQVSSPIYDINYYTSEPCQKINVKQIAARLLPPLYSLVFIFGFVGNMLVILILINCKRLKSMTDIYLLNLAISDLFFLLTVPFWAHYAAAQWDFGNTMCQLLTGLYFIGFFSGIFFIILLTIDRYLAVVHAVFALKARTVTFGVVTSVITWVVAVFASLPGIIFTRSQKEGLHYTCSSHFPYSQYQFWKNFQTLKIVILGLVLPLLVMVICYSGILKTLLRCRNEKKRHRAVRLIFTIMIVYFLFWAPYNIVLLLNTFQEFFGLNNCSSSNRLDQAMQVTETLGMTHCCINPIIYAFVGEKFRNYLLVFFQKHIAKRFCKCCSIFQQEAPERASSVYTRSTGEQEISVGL
Experiment: CCR5 in vitro test: intracellular calcium signal detected by FLIPR
Details: HEK293 cells expressing CCR5, agonist RANTES at EC80, calcium signal
The reader will find reported pIC50 values listed item by item below.
Note on units: pIC50 is unitless, being -log10 of a concentration expressed in mol/L.

compound	pIC50
CCCn1cncc1C[S@+]([O-])c1ccc(NC(=O)/C=C/c2cc(-c3ccc(OCCCF)cc3)ccc2Cl)cc1 [WX022]	8.00
CCCCOCCOc1ccc(-c2ccc(OCC)c(/C=C/C(=O)Nc3ccc([S@@+]([O-])Cc4cncn4CCC)cc3)c2)cc1 [WX032]	8.09
CCCCOCCOc1ccc(-c2ccc(OC(F)(F)F)c(/C=C/C(=O)Nc3ccc([S@@+]([O-])Cc4c(C)ncn4CC)cc3)c2)cc1 [WX054]	8.04
CCCOCCOc1ccc(-c2ccc(OC)c(/C=C/C(=O)Nc3ccc([S@@+]([O-])Cc4c(C)ncn4CC)cc3)c2)cc1 [WX065]	7.17
CCCCOCCOc1ccc(-c2ccc(C(F)(F)F)c(/C=C/C(=O)Nc3ccc([S@@+]([O-])Cc4cncn4CCC)cc3)c2)cc1 [WX060]	8.39
CCCCOCCOc1ccc(-c2cc(C)cc(/C=C/C(=O)Nc3ccc([S@+]([O-])Cc4c(C)ncn4CC)cc3)c2)cc1 [WX092]	8.00

Request: Field request: pIC50 | item: CCCCOCCOc1ccc(-c2cc(C)c(OC)c(/C=C/C(=O)Nc3ccc([S@@+]([O-])Cc4cncn4CCC)cc3)c2)cc1 [WX042]
Response: 8.40

Request: Next entry: CCCCOCCOc1ccc(-c2cccc(/C=C/C(=O)Nc3ccc([S@@+]([O-])Cc4cncn4CCC)cc3)c2)cc1 [WX001]
Response: 8.03

Request: For CCCCOCCOc1ccc(-c2ccc(OC(F)F)c(/C=C/C(=O)Nc3ccc([S@@+]([O-])Cc4c(C)ncn4CCC)cc3)c2)cc1 [WX082] then?
Response: 7.94

Request: Do the same for CCCOCCOc1ccc(-c2ccc(OC)c(/C=C/C(=O)Nc3ccc([S@+]([O-])Cc4c(C)ncn4CC)cc3)c2)cc1 [WX066] please
Response: 8.00

Request: // same read-out, input: CCCOc1ccc(-c2ccc(OC(F)F)c(/C=C/C(=O)Nc3ccc([S@@+]([O-])Cc4c(C)ncn4CC)cc3)c2)cc1 [WX062]
Response: 7.69

Request: // repeat for CCCOCCOc1ccc(-c2ccc(OCC)c(/C=C/C(=O)Nc3ccc([S@@+]([O-])Cc4cncn4CCC)cc3)c2)cc1 [WX067] and report
Response: 9.05

Request: Now consider CCCCOCCOc1ccc(-c2cccc(/C=C(\C)C(=O)Nc3ccc([S@@+]([O-])Cc4cncn4CCC)cc3)c2)cc1 [WX008] .
Response: 8.82

Request: What about CCCOCCOc1ccc(-c2ccc(OC)c(/C=C/C(=O)Nc3ccc([S@@+]([O-])Cc4cncn4CCC)cc3)c2)cc1 [WX050] ?
Response: 7.68

###

Target: CCR5 (Homo sapiens)
Test: CCR5 in vitro test: intracellular calcium signal detected by FLIPR
Settings: HEK293 cells expressing CCR5, agonist RANTES at EC80, calcium signal
log10 IC50 by entry:
Kindly note that the scale is log10 and the underlying IC50 is in µM.

A selection of reference data follows.
compound	target.or.test.system	readout.label	data.value
CCCCOCCOc1ccc(-c2ccc([S+]([O-])C(C)C)c(/C=C/C(=O)Nc3ccc([S@@+]([O-])Cc4c(C)ncn4CC)cc3)c2)cc1 (some centres unmarked) [WX057]	CCR5 (Homo sapiens)	log10 IC50	-2.46
CCCCOCCOc1ccc(-c2cccc(/C=C/C(=O)Nc3ccc([S+]([O-])Cc4cncn4CC4CC4)cc3)c2)cc1 (centres unmarked) [WX023]	CCR5 (Homo sapiens)	log10 IC50	-1.27
CCCCOCCOc1ccc(-c2cc(/C=C/C(=O)Nc3ccc([S@@+]([O-])Cc4cncn4CCC)cc3)c(OC)c(OC)c2)cc1 [WX035]	CCR5 (Homo sapiens)	log10 IC50	-1.79
CCCCOCCOc1ccc(-c2ccc(OC)c(/C=C/C(=O)Nc3ccc([S@+]([O-])Cc4cncn4CCC)cc3)c2)cc1 [WX085]	CCR5 (Homo sapiens)	log10 IC50	-2.25
CCCCOCCOc1ccc(-c2ccc(OC)c(/C=C/C(=O)Nc3ccc([S+]([O-])Cc4cnccc4C)cc3)c2)cc1 (centres unmarked) [WX056]	CCR5 (Homo sapiens)	log10 IC50	-1.78
CCCCOCCOc1ccc(-c2ccc(OC)c(/C=C/C(=O)Nc3ccc([S@+]([O-])Cc4c(C)ncn4CCC)cc3)c2)cc1 [WX075]	CCR5 (Homo sapiens)	log10 IC50	-2.62
CCCCOCCOc1ccc(-c2ccc(O)c(/C=C/C(=O)Nc3ccc([S@@+]([O-])Cc4cncn4CCC)cc3)c2)cc1 [WX049]	CCR5 (Homo sapiens)	log10 IC50	-2.04
CCCCOCCOc1ccc(-c2ccc(C3CCCC3)c(/C=C/C(=O)Nc3ccc([S@@+]([O-])Cc4c(C)ncn4CC)cc3)c2)cc1 [WX072]	CCR5 (Homo sapiens)	log10 IC50	-2.23
CCCCOc1ccc(-c2ccc(Cl)c(/C=C/C(=O)Nc3ccc([S+]([O-])Cc4cncn4CC(C)C)cc3)c2)cc1 (centres unmarked) [WX030]	CCR5 (Homo sapiens)	log10 IC50	-1.80
CCCCOc1ccc(-c2ccc(Cl)c(/C=C/C(=O)Nc3ccc([S@@+]([O-])Cc4cncn4CCC)cc3)c2)cc1 [WX025]	CCR5 (Homo sapiens)	log10 IC50	-2.13

Request: Which log10 IC50 is reported for this compound? CCCCOCCOc1ccc(-c2cccc(/C=C/C(=O)Nc3ccc([S+]([O-])Cc4cncn4CC)cc3)c2)cc1 (centres unmarked) [WX019]
Response: -1.29

Request: Could you do the same for CCCOCCOc1ccc(-c2ccc(OC(F)F)c(/C=C/C(=O)Nc3ccc([S@+]([O-])Cc4c(C)ncn4CCC)cc3)c2)cc1 [WX080] , please?
Response: -1.82

Request: Query CCCCOCCOc1ccc(-c2ccc(F)c(/C=C/C(=O)Nc3ccc([S@@+]([O-])Cc4cncn4CCC)cc3)c2)cc1 [WX003] next
Response: -2.52

Request: Likewise for CCCCOCCOc1ccc(-c2cccc(/C=C/C(=O)Nc3ccc(S(=O)(=O)Cc4cncn4CCC)cc3)c2)cc1 [WX031] ?
Response: -1.02

###

Experiment: Comparative pharmacokinetics study in rats
Assay type: in vivo, SD male rats
Conditions: male, Sprague-Dawley (SD), plasma; rat, oral 10 mg/kg vs intravenous 2 mg/kg
Measured bioavailability values are reported for all entries that follow.
Give a bare numeral; the unit % is implied.

Some compounds with recorded bioavailability:
compound	units	data.value
CCCCOCCOc1ccc(-c2ccc(OCC)c(/C=C/C(=O)Nc3ccc([S@+]([O-])Cc4c(C)ncn4CC)cc3)c2)cc1 [WX047]	%	40.4
CCCCOCCOc1ccc(-c2ccc(OC)c(/C=C/C(=O)Nc3ccc([S@@+]([O-])Cc4cncn4CCC)cc3)c2)cc1 [WX017]	%	48.9
CCCCOCCOc1ccc(-c2ccc(OC)c(/C=C/C(=O)Nc3ccc([S@+]([O-])Cc4c(C)ncn4CC)cc3)c2)cc1 [WX079]	%	32.6
CCCCOCCOc1ccc(-c2ccc3c(c2)/C=C(/C(=O)Nc2ccc([S@@+]([O-])Cc4cncn4CCC)cc2)CCCN3CC(C)C)cc1 [(Cenicriviroc), Cenicriviroc, reference compound]	%	20.4

Request: Fill in the blank: the reported bioavailability of CCCCOCCOc1ccc(-c2cc(F)c(OC)c(/C=C/C(=O)Nc3ccc([S@+]([O-])Cc4c(C)ncn4CC)cc3)c2)cc1 [WX088] is ____.
Response: 15.7

###

Assay: Comparative pharmacokinetics study in rats
Format: in vivo, SD male rats
Conditions: rat, oral, relative to Cenicriviroc
Oral plasma system exposure (AUC0-inf) as multiple of the reference compound values, listed per item
Value expressed in times; do not type the unit.

Would you please look over these solved cases?
CCCCOCCOc1ccc(-c2ccc(OCC)c(/C=C/C(=O)Nc3ccc([S@+]([O-])Cc4c(C)ncn4CC)cc3)c2)cc1 6.4
CCCCOCCOc1ccc(-c2ccc(OC)c(/C=C/C(=O)Nc3ccc([S@@+]([O-])Cc4cncn4CCC)cc3)c2)cc1 10.4
CCCCOCCOc1ccc(-c2cc(F)c(OC)c(/C=C/C(=O)Nc3ccc([S@+]([O-])Cc4c(C)ncn4CC)cc3)c2)cc1 3.8

In the following, a different compound is considered.
Request: Requested read-out: Oral plasma system exposure (AUC0-inf) as multiple of the reference compound. Entry: CCCCOCCOc1ccc(-c2ccc(OC)c(/C=C/C(=O)Nc3ccc([S@+]([O-])Cc4c(C)ncn4CC)cc3)c2)cc1
Response: 12.6

###

Molecular target: CCR2 (Homo sapiens, UniProt P41597)
Sequence (P41597 whole entry, species assumed): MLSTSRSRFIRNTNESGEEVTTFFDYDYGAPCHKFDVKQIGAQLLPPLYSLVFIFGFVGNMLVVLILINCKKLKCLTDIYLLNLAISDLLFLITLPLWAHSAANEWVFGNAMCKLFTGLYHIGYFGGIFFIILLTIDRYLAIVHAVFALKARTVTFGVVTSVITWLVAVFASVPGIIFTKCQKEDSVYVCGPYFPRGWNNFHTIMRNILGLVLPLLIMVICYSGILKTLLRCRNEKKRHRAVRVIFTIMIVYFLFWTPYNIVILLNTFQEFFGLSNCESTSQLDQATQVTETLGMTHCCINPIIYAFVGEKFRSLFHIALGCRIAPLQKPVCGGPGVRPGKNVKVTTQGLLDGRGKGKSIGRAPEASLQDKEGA
Assay: CCR2 in vitro test: intracellular calcium signal detected by FLIPR
Details: HEK293 cells expressing CCR2, agonist MCP-1 at EC80, calcium signal
Measured IC50 values are reported for all entries that follow.
Value expressed in nM; do not type the unit.

compound	units	data.value
CCCOc1ccc(-c2ccc(OC(F)F)c(/C=C/C(=O)Nc3ccc([S@@+]([O-])Cc4c(C)ncn4CC)cc3)c2)cc1	nM	84.5

Request: Field request: IC50 | item: CCCCOCCOc1ccc(-c2ccc(OC)c(/C=C/C(=O)Nc3ccc([S@@+]([O-])Cc4cncn4CCC)cc3)c2)c(C)c1
Response: 64.9

Request: And then CCCCOCCOc1ccc(-c2cc(C)c(OC)c(/C=C/C(=O)Nc3ccc([S@+]([O-])Cc4c(C)ncn4CC)cc3)c2)cc1 , what is it?
Response: 5.5
